The values you see were collected from ChEMBL document CHEMBL3988442.

molecular target: Aspartate--tRNA(Asp/Asn) ligase (Mycobacterium tuberculosis (strain ATCC 25618 / H37Rv)); assay: Assay for Asp RNA synthetase-1 from Mycobacterium tuberculosis; assay type: functional; parameters: scale not given: in the data most compounds retested in dose-response had high values; conditions: 30 µM
measured-attribute: Percent Effect (%)
Please give a number only; it is taken to be in %.

Item COc1ccc(CS(=O)(=O)CC(=O)NCC2CC2)cc1F has what recorded Percent Effect?
3.98

What Percent Effect value was documented for this molecule, O=C(CSc1ccccn1)N1C[C@H]2CC[C@@H]1CN(Cc1cscn1)C2 ?
-1.93

Looking for the measured Percent Effect of Cc1ccc(NC2CCN(C(=O)Cn3nc(C)cc3C)CC2)nn1 , can you help?
-3.3

# query: Percent Effect of entry Fc1ccc(CN2CCC(c3n[nH]c4nccnc34)CC2)cc1F
0.372

Look up Percent Effect: CN(C)C[C@@H]1C[C@@H]2CN(C(=O)c3ccoc3)CC[C@@H]2N1CC1CC1
2.34
